I'd appreciate it if you could supply Relative conversion (conversion of N-acetyl amino acid amides, Table 4b) values for the items below.
EXPERIMENTAL_TARGET: peptide amidase from Xanthomonas maltophilia (Stenotrophomonas maltophilia, UniProt Q8RJN5)
Construct: wild type, not recombinant
TEST_DETAILS: Substrate spectrum of peptide amidase, enzymatic determination of the released ammonia
Format: biochemical
SETUP_CONDITIONS: substrate 10 mM, 18 mU peptide amidase per ml, 50 mM tris/HCl pH 7.5, 30° C., 3 hours
Answers are plain numbers, in %.

Examples with answers:
CC(=O)N[C@@H](CS)C(N)=O = 82
CC(=O)N[C@@H](CCCNC(=N)N)C(N)=O = 110
CC(=O)N[C@@H](C)C(N)=O = 182
CC(=O)N[C@@H](Cc1c[nH]cn1)C(N)=O = 177
CC(=O)N[C@H](C(N)=O)[C@@H](C)O = 21

Please give Relative conversion (conversion of N-acetyl amino acid amides, Table 4b), item by item, for the list that follows.
1. CC(=O)N[C@@H](Cc1c[nH]c2ccccc12)C(N)=O
2. CC(=O)NC(CC(C)(C)C)C(N)=O (racemic) [Ac-D,L-neopentylglycine amide, Nα -acetyl-DL-neopentylglycine Amide]
3. CC(=O)N[C@H](C(N)=O)c1ccccc1 [Ac-Phg-NH2, N-acetylphenylglycine amide]
4. CC(=O)N[C@@H](Cc1ccccc1)C(N)=O

1: 157; 2: 131; 3: 28; 4: 134

Please give Relative conversion (conversion of N-acetyl amino acid amides, Table 4b), item by item, for the list that follows.
1. CC(=O)N[C@@H](CCCCN)C(N)=O
2. CC(=O)N1CCC[C@H]1C(N)=O
3. CC(=O)N[C@@H](Cc1ccc(O)cc1)C(N)=O

1. 175
2. 0
3. 123

====

EXPERIMENTAL_TARGET: peptide amidase from Xanthomonas maltophilia (Stenotrophomonas maltophilia, UniProt Q8RJN5)
Construct: wild type, not recombinant
Sequence (Q8RJN5 34-540): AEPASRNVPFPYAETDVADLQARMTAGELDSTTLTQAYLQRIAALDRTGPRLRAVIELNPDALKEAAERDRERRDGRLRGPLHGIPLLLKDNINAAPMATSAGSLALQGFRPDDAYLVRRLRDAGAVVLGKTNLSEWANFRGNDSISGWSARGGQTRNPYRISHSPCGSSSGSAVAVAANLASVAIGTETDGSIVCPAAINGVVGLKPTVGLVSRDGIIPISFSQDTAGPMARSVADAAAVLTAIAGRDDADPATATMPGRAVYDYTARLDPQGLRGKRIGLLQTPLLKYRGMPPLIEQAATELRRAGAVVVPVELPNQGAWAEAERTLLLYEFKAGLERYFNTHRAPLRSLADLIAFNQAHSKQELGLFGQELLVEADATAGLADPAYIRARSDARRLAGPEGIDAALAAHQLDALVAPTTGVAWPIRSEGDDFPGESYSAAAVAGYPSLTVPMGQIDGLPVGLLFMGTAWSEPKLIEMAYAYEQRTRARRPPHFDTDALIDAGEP
TEST_DETAILS: Substrate spectrum of peptide amidase, enzymatic determination of the released ammonia
Format: biochemical
SETUP_CONDITIONS: substrate 10 mM, 18 mU peptide amidase per ml, 50 mM tris/HCl pH 7.5, 30° C., 3 hours
Peptide text beside a SMILES is read from it.
Consider the cut-off 200%. If the recorded Relative conversion (influence of protective group and adjacent amino acid, Table 4c) is strictly smaller, the label is TRUE; if not, the label is FALSE.

// below: answered compounds
NC(=O)[C@H](Cc1ccc(O)cc1)NC(=O)c1ccccc1 [Bz-Tyr-NH2] = TRUE
CC(=O)N[C@@H](Cc1ccc(O)cc1)C(N)=O [Ac-Tyr-NH2] = TRUE
CSCCC(NC(C)=O)C(N)=O (racemic) [Ac-D,L-Met-NH2, N-Ac-D,L-methionine amide] = TRUE

Hi there! Is Relative conversion (influence of protective group and adjacent amino acid, Table 4c) for CSCCC(NC(N)=O)C(N)=O (racemic) [N-Carbamoyl-D,L-Met-NH2] below 200%, do you know?
TRUE

Also CC(C)C[C@H](N)C(=O)N[C@@H](C)C(N)=O [Leu-Ala-NH2] (H-Leu-Ala-NH2) ?
FALSE

Also C[C@H](N)C(=O)N[C@@H](C)C(N)=O [Ala-Ala-NH2] (H-Ala-Ala-NH2) ?
FALSE

Also CCOC(=O)NC(CCSC)C(N)=O (racemic) [N-Ethoxy-D,L-Met-NH2, Nα -ethoxycarbonyl-DL-methionine amide] ?
TRUE

Also CSCC[C@H](NC(=O)[C@@H](N)CCCNC(=N)N)C(N)=O [Arg-Met-NH2] (H-Arg-Met-NH2) ?
TRUE

====

I'd appreciate it if you could supply enantiomeric purity examined with HPLC (share of the enantiomer in the acid product) values for the items below.
EXPERIMENTAL_TARGET: peptide amidase from Xanthomonas maltophilia (Stenotrophomonas maltophilia, UniProt Q8RJN5)
Construct: wild type, not recombinant
TEST_DETAILS: Splitting of racemic mixtures of N-protected amino acid amides
Assay type: biochemical
SETUP_CONDITIONS: racemic substrate 10 mM, 20 U peptide amidase in 50 ml, 50 mM triethylammonium carbonate pH 7.5, 30° C.
Answers are plain numbers, in %.

Examples with answers:
CC(=O)N[C@@H](CC(C)(C)C)C(=O)O = 99.8
C[C@@H](NC(=O)OCc1ccccc1)C(=O)O = 0.4
C[C@H](NC(=O)OCc1ccccc1)C(=O)O = 99.6

Now turn to the next molecule.
Which value of enantiomeric purity examined with HPLC (share of the enantiomer in the acid product) has been reported for CC(=O)N[C@H](CC(C)(C)C)C(=O)O in the records?
0.2

====

I'd appreciate it if you could supply Relative conversion (conversion of N-acetyl amino acid amides, Table 4b) values for the items below.
EXPERIMENTAL_TARGET: peptide amidase from Xanthomonas maltophilia (Stenotrophomonas maltophilia)
Construct: wild type, not recombinant
TEST_DETAILS: Substrate spectrum of peptide amidase, enzymatic determination of the released ammonia
Type: biochemical
SETUP_CONDITIONS: substrate 10 mM, 18 mU peptide amidase per ml, 50 mM tris/HCl pH 7.5, 30° C., 3 hours
Give bare numbers, in %.

Examples with answers:
CC(=O)N[C@H](C(N)=O)C(C)C [Ac-Val-NH2] = 1
CSCCC(NC(C)=O)C(N)=O (racemic) [Ac-D,L-Met-NH2, N-Ac-D,L-methionine amide] = 102
CC[C@H](C)[C@H](NC(C)=O)C(N)=O [Ac-Ile-NH2] = 6
CC(=O)N[C@@H](CO)C(N)=O [Ac-Ser-NH2] = 58

Please provide the recorded Relative conversion (conversion of N-acetyl amino acid amides, Table 4b) for CC(=O)N[C@@H](CCC(=O)O)C(N)=O [Ac-Glu-NH2] , tested on peptide amidase from Xanthomonas maltophilia (Stenotrophomonas maltophilia).
162

====

I'd appreciate it if you could supply Relative conversion (conversion of dipeptide amides, Table 4a) values for the items below.
EXPERIMENTAL_TARGET: peptide amidase from Xanthomonas maltophilia (Stenotrophomonas maltophilia)
Construct: wild type, not recombinant
Sequence (Q8RJN5 34-540): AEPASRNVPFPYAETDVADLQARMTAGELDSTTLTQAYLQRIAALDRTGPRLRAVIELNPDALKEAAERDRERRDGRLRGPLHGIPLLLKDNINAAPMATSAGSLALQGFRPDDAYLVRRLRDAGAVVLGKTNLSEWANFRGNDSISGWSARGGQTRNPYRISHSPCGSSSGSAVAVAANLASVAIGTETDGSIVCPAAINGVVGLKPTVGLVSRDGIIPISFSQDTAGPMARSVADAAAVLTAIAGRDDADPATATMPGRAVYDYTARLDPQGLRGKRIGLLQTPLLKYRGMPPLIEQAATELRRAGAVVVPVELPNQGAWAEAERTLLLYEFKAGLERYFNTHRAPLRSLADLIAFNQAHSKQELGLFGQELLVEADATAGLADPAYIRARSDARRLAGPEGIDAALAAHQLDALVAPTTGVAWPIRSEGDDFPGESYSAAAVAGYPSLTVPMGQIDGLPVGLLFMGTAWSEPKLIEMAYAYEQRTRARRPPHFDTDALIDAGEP
TEST_DETAILS: Substrate spectrum of peptide amidase, enzymatic determination of the released ammonia
Format: biochemical
SETUP_CONDITIONS: substrate 10 mM, 18 mU peptide amidase per ml, 50 mM tris/HCl pH 7.5, 30° C., 3 hours
Peptide text beside a SMILES is read from it.
Give bare numbers, in %.

CC(C)C[C@H](N)C(=O)N[C@@H](C)C(N)=O [Leu-Ala-NH2] (H-Leu-Ala-NH2) = 217

Please give Relative conversion (conversion of dipeptide amides, Table 4a), item by item, for the list that follows.
1. NCC(=O)N[C@@H](Cc1ccc(O)cc1)C(N)=O [Gly-Tyr-NH2] (H-Gly-Tyr-NH2)
2. C[C@H](N)C(=O)NCC(N)=O [Ala-Gly-NH2] (H-Ala-Gly-NH2)
3. NCC(=O)N[C@@H](CC(N)=O)C(=O)O [Gly-Asn-OH] (H-Gly-Asn-OH)
4. CC(C)[C@H](N)C(=O)NCC(N)=O [Val-Gly-NH2] (H-Val-Gly-NH2)
5. C[C@H](NC(=O)[C@@H](N)Cc1ccccc1)C(N)=O [Phe-Ala-NH2]
6. NCC(=O)N[C@@H](Cc1ccccc1)C(N)=O [Gly-Phe-NH2] (H-Gly-Phe-NH2)

1. 174
2. 39
3. 0
4. 22
5. 203
6. 214

Please give Relative conversion (conversion of dipeptide amides, Table 4a), item by item, for the list that follows.
1. NC(=O)[C@H](Cc1ccccc1)NC(=O)[C@@H](N)Cc1ccc(O)cc1 [Tyr-Phe-NH2] (H-Tyr-Phe-NH2)
2. CC(C)C[C@H](N)C(=O)NCC(N)=O [Leu-Gly-NH2] (H-Leu-Gly-NH2)
3. NC(=O)[C@H](Cc1ccccc1)NC(=O)[C@@H]1CCCN1 [Pro-Phe-NH2] (H-Pro-Phe-NH2)
4. C[C@H](N)C(=O)N[C@@H](CCC(N)=O)C(=O)O [Ala-Gln-OH] (H-Ala-Gln-OH)

1. 190
2. 54
3. 158
4. 0
